target: Human immunodeficiency virus type 1 protease (Human immunodeficiency virus 1); experiment: concentration of compound required to inhibit 90% of RT production in HIV-1/MN-infected MT-2 cells.; type: functional, cell-based; conditions: MT2
So I've got a bunch of molecules here, and I need their ED90 values.
One number for each entry, in nM.

As a guide, the following entries are already answered.
CCN(CC)c1ccc(CN(C[C@H](O)[C@H](Cc2ccccc2)NC(=O)[C@@H](NC(=O)OC)C(C)(C)C)NC(=O)[C@@H](NC(=O)OC)C(C)(C)C)cc1: 10
COC(=O)N[C@H](C(=O)N[C@@H](Cc1ccccc1)[C@@H](O)CN(Cc1ccc(-c2nccs2)cc1)NC(=O)[C@@H](NC(=O)OC)C(C)(C)C)C(C)C: 10
COC(=O)N[C@H](C(=O)N[C@@H](Cc1ccccc1)[C@@H](O)CN(Cc1ccc(-c2nnn(C)n2)cc1)NC(=O)[C@@H](NC(=O)OC)C(C)(C)C)C(C)(C)C: 10
CCC(C)[C@H](NC(=O)OC)C(=O)N[C@@H](Cc1ccccc1)[C@@H](O)CN(Cc1ccc(-c2ccccn2)cc1)NC(=O)[C@@H](NC(=O)OC)C(C)C (stereo partly specified): 10
CCOC(=O)N[C@H](C(=O)N[C@@H](Cc1ccccc1)[C@@H](O)CN(CC1CCCCC1)NC(=O)[C@@H](NC(=O)OCC)C(C)C)C(C)C: 1000

Look up ED90: COC(=O)N[C@H](C(=O)N[C@@H](Cc1ccccc1)[C@@H](O)CN(Cc1ccc(-c2ccccc2)cc1)NC(=O)[C@@H](NC(=O)OC)C(C)C)C(C)C
10

###

target: Human immunodeficiency virus type 1 protease (Human immunodeficiency virus 1); experiment: Concentration required to inhibit 50% of RT production in HIV-1/MN-infected MT-2 cells.; format: functional, cell-based; conditions: MT2
ENDPOINT_NAME: ED50 (nM)
Numbers only, in nM.

COC(=O)N[C@H](C(=O)N[C@@H](Cc1ccccc1)[C@@H](O)CN(Cc1ccc(-c2nnn(C)n2)cc1)NC(=O)[C@@H](NC(=O)OC)C(C)(C)C)C(C)(C)C: 0.8
COC(=O)N[C@H](C(=O)N[C@@H](Cc1ccccc1)[C@@H](O)CN(Cc1ccc(-c2ccccc2)cc1)NC(=O)[C@@H](NC(=O)OC)C(C)(C)C)C(C)C: 1.5
COC(=O)N[C@H](C(=O)N[C@@H](Cc1ccccc1)[C@@H](O)CN(Cc1ccc(-c2cncs2)cc1)NC(=O)[C@@H](NC(=O)OC)C(C)(C)C)C(C)(C)C: 0.8

Provide ED50 values for the following items, in order.
1. COC(=O)N[C@H](C(=O)N[C@@H](Cc1ccccc1)[C@@H](O)CN(Cc1ccc(-c2ccccn2)cc1)NC(=O)[C@@H](NC(=O)OC)C(C)(C)C)C(C)C
2. COC(=O)N[C@H](C(=O)N[C@@H](Cc1ccccc1)[C@@H](O)CN(Cc1ccc(-c2nnn(C(C)(C)C)n2)cc1)NC(=O)[C@@H](NC(=O)OC)C(C)(C)C)C(C)(C)C
3. COC(=O)N[C@H](C(=O)N[C@@H](Cc1ccccc1)[C@@H](O)CN(Cc1ccc(-c2cncs2)cc1)NC(=O)[C@@H](NC(=O)OC)C(C)(C)C)C(C)C
4. COC(=O)N[C@H](C(=O)N[C@@H](Cc1ccccc1)[C@@H](O)CN(Cc1ccc(-c2nccs2)cc1)NC(=O)[C@@H](NC(=O)OC)C(C)(C)C)C(C)(C)C

1: 2; 2: 0.8; 3: 1.4; 4: 0.5

For each of the compounds below, state ED50.
1. CCN(CC)c1ccc(CN(C[C@H](O)[C@H](Cc2ccccc2)NC(=O)[C@@H](NC(=O)OC)C(C)(C)C)NC(=O)[C@@H](NC(=O)OC)C(C)(C)C)cc1
2. CCOC(=O)N[C@H](C(=O)NN(Cc1ccc(-c2cncs2)cc1)C[C@H](O)[C@H](Cc1ccccc1)NC(=O)[C@@H](NC(=O)OC)C(C)(C)C)C(C)C
3. COC(=O)N[C@H](C(=O)N[C@@H](Cc1ccccc1)[C@@H](O)CN(Cc1ccc(-c2nccs2)cc1)NC(=O)[C@@H](NC(=O)OC)C(C)(C)C)C(C)C

1. 1.6
2. 1.2
3. 2.1

The origin of these recorded values is ChEMBL document CHEMBL1131075.
